Target: T1, human Trop-2 expressed on cell surface (human, UniProt P09758 27-323)
T1 sequence (looked up): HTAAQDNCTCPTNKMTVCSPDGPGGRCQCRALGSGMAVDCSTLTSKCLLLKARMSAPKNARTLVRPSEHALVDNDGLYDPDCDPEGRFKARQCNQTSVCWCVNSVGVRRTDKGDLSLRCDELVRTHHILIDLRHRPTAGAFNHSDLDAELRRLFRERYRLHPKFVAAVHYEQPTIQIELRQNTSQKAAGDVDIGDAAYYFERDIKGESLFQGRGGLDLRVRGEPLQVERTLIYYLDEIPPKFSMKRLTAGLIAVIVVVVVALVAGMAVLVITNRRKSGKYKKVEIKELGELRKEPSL
Test: cell-based or functional assay
This section presents binders with their documented Internalization %, MCF-7, 0.5 µg/ml, 2 h values.
Numbers only; they are read as %.

Please review the following examples before continuing.
INSERT INTO assay_data (binder, assay_result) VALUES
  ('65D5 (antibody, V domains shown, Rabbit-derived clone; LEM construct: VH + rabbit IgG CH1 + human IgG1 CH2-CH3) VH: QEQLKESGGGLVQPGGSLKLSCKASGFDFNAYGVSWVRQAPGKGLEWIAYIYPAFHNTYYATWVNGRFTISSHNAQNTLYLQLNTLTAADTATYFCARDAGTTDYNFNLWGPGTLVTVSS VL: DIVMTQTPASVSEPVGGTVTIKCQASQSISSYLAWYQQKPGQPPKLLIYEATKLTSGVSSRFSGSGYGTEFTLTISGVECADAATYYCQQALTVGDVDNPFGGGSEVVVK', 41),
  ('1D10 (antibody, V domains shown, Rabbit-derived clone; LEM construct: VH + rabbit IgG CH1 + human IgG1 CH2-CH3) VH: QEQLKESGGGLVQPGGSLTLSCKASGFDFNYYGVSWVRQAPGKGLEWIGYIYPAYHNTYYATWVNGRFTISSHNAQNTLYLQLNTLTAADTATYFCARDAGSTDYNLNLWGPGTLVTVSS VL: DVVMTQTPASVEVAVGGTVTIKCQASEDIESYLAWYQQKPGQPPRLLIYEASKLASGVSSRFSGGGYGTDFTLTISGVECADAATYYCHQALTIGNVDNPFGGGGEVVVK', 54);

Kindly note the recorded Internalization %, MCF-7, 0.5 µg/ml, 2 h for 62E3 (antibody, V domains shown, Rabbit-derived clone; LEM construct: VH + rabbit IgG CH1 + human IgG1 CH2-CH3) VH: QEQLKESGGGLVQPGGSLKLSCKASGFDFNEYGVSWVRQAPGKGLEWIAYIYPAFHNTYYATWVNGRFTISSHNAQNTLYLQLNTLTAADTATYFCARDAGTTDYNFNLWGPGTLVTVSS VL: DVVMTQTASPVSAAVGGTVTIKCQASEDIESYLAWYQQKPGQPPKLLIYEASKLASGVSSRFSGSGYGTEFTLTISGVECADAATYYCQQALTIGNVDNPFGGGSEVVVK , which is 41
